- protocol-description: activity coefficient (dimensionless); of the first substance listed, at infinite dilution; xn = mol fraction of the nth substance listed
- reported-conditions: 353.15 K; 101.33 kPa; Liquid; Chromatography; x1 = 0
So basically: activity coefficient at 2 or higher? That is TRUE. Lower than 2? That is FALSE.

Dear colleague, could you confirm whether CCCCCO [pentan-1-ol] + CCCCn1cc[n+](C)c1.[O-][Cl+3]([O-])([O-])[O-] has activity coefficient at or above 2?
TRUE

Then this compound: CCc1ccccc1 [ethylbenzene] + CCCCn1cc[n+](C)c1.[O-][Cl+3]([O-])([O-])[O-]
TRUE

Then this compound: C1COCCO1 [1,4-dioxane] + CCCCn1cc[n+](C)c1.[O-][Cl+3]([O-])([O-])[O-]
FALSE

Then this compound: CCCO [propan-1-ol] + CCCCn1cc[n+](C)c1.[O-][Cl+3]([O-])([O-])[O-]
FALSE

Then this compound: CC1CCCCC1 [methylcyclohexane] + CCCCn1cc[n+](C)c1.[O-][Cl+3]([O-])([O-])[O-]
TRUE

Then this compound: CC(C)O [propan-2-ol] + CCCCn1cc[n+](C)c1.[O-][Cl+3]([O-])([O-])[O-]
FALSE

###

- protocol-description: activity coefficient (dimensionless); of the first substance listed, at infinite dilution; xn = mol fraction of the nth substance listed
- reported-conditions: 303.15 K; 101.33 kPa; Liquid; Chromatography; x1 = 0
measured-parameter: activity coefficient

I am curious: what activity coefficient value has been reported for CCOC(C)=O [ethyl acetate] + CCCCn1cc[n+](C)c1.[O-][Cl+3]([O-])([O-])[O-] ?
2.22

Then this compound: c1ccccc1 [benzene] + CCCCn1cc[n+](C)c1.[O-][Cl+3]([O-])([O-])[O-]
1.78

Then this compound: CC1CCCCC1 [methylcyclohexane] + CCCCn1cc[n+](C)c1.[O-][Cl+3]([O-])([O-])[O-]
46.5

Then this compound: C1CCOC1 [tetrahydrofuran] + CCCCn1cc[n+](C)c1.[O-][Cl+3]([O-])([O-])[O-]
1.5

###

- protocol-description: activity coefficient (dimensionless); of the first substance listed, at infinite dilution; xn = mol fraction of the nth substance listed
- reported-conditions: 343.15 K; 101.33 kPa; Liquid; Chromatography; x1 = 0
measured-parameter: activity coefficient
Answer using only a numeral; do not append any unit.

I am curious: what activity coefficient value has been reported for CC(C)CC(C)(C)C [2,2,4-trimethylpentane] + CCCCn1cc[n+](C)c1.[O-][Cl+3]([O-])([O-])[O-] ?
122

Then this compound: Cc1cccc(C)c1 [1,3-dimethylbenzene] + CCCCn1cc[n+](C)c1.[O-][Cl+3]([O-])([O-])[O-]
5.28

Then this compound: CCc1ccccc1 [ethylbenzene] + CCCCn1cc[n+](C)c1.[O-][Cl+3]([O-])([O-])[O-]
5.29

Then this compound: C1COCCO1 [1,4-dioxane] + CCCCn1cc[n+](C)c1.[O-][Cl+3]([O-])([O-])[O-]
1.1

Then this compound: ClC(Cl)(Cl)Cl [tetrachloromethane] + CCCCn1cc[n+](C)c1.[O-][Cl+3]([O-])([O-])[O-]
4.6

FYI, the data here is from the NIST ThermoML archive (doi:10.1016/j.jct.2017.07.012).
